assay_overview: activity coefficient (dimensionless); of the first substance listed, at infinite dilution; xn = mol fraction of the nth substance listed
measurement_conditions: 353.15 K; 101 kPa; Liquid; Chromatography; x1 = 0
experimental_endpoint: activity coefficient

[
  {
    "compound": "CC(C)O [propan-2-ol] + CCn1cc[n+](C)c1.N#C[B-](C#N)(C#N)C#N",
    "activity coefficient": 1.23
  },
  {
    "compound": "CO [methanol] + CCn1cc[n+](C)c1.N#C[B-](C#N)(C#N)C#N",
    "activity coefficient": 0.755
  },
  {
    "compound": "ClCCl [dichloromethane] + CCn1cc[n+](C)c1.N#C[B-](C#N)(C#N)C#N",
    "activity coefficient": 0.714
  }
]

P: CCO [ethanol] + CCn1cc[n+](C)c1.N#C[B-](C#N)(C#N)C#N
Q: COC(=O)OC [dimethyl carbonate] + CCn1cc[n+](C)c1.N#C[B-](C#N)(C#N)C#N
### Prompt Lab notebook, comparison: P versus Q , higher activity coefficient goes to which? Output the label that corresponds to your choice.
### Response P
(P: 1, Q: 0.576)

----------
assay_overview: activity coefficient (dimensionless); of the first substance listed, at infinite dilution; xn = mol fraction of the nth substance listed
measurement_conditions: 323.15 K; 101 kPa; Liquid; Chromatography; x1 = 0
experimental_endpoint: activity coefficient

Use the examples below as a reference point.
[
  {
    "compound": "ClC(Cl)(Cl)Cl [tetrachloromethane] + CCn1cc[n+](C)c1.N#C[B-](C#N)(C#N)C#N",
    "activity coefficient": 3.56
  },
  {
    "compound": "CO [methanol] + CCn1cc[n+](C)c1.N#C[B-](C#N)(C#N)C#N",
    "activity coefficient": 0.89
  },
  {
    "compound": "FC(F)(F)C(Cl)Br (stereo not drawn) [1-bromo-1-chloro-2,2,2-trifluoroethane] + CCn1cc[n+](C)c1.N#C[B-](C#N)(C#N)C#N",
    "activity coefficient": 1.19
  },
  {
    "compound": "CCCO [propan-1-ol] + CCn1cc[n+](C)c1.N#C[B-](C#N)(C#N)C#N",
    "activity coefficient": 1.55
  }
]

P: CCC1CCCCC1 [ethylcyclohexane] + CCn1cc[n+](C)c1.N#C[B-](C#N)(C#N)C#N
Q: CCO [ethanol] + CCn1cc[n+](C)c1.N#C[B-](C#N)(C#N)C#N
### Prompt I'm curious, which of these has a smaller activity coefficient number: P or Q ? Output the label that corresponds to your choice.
### Response Q
(Q: 1.25, P: 323)

----------
assay_overview: activity coefficient (dimensionless); of the first substance listed, at infinite dilution; xn = mol fraction of the nth substance listed
measurement_conditions: 318.15 K; 101 kPa; Liquid; Chromatography; x1 = 0
experimental_endpoint: activity coefficient

a: CC#N [acetonitrile] + CCn1cc[n+](C)c1.N#C[B-](C#N)(C#N)C#N
b: CCCCCCCC [octane] + CCn1cc[n+](C)c1.N#C[B-](C#N)(C#N)C#N
c: CO [methanol] + CCn1cc[n+](C)c1.N#C[B-](C#N)(C#N)C#N
### Prompt Rank the 3 compounds: largest activity coefficient first, smallest last. List labels; respect the requested ordering.
### Response b, c, a
(b: 64.2, c: 0.917, a: 0.428)

I: ClC(Cl)Cl [trichloromethane] + CCn1cc[n+](C)c1.N#C[B-](C#N)(C#N)C#N
II: CCCO [propan-1-ol] + CCn1cc[n+](C)c1.N#C[B-](C#N)(C#N)C#N
### Prompt Lab notebook, comparison: I versus II , higher activity coefficient goes to which? Output the label that corresponds to your choice.
### Response II
